system: Glutamate receptor ionotropic, AMPA (Rattus norvegicus, UniProt P19490+P19491+P19492+P19493)
assay_summary: Binding affinity towards AMPA receptor by displacement of [3H]AMPA radioligand
Assay type: protein-complex assay
measure_name: pKi
API: returns pKi as number; meaning -log10 of concentration in mol/L.

Q) Any idea what pKi was measured for N[C@@H](CCC1=N[C@H](C(=O)O)CO1)C(=O)O ?
A) 3.99

* * *

system: Excitatory amino acid transporter 3 (Rattus norvegicus, UniProt P51907)
Sequence (P51907 whole entry): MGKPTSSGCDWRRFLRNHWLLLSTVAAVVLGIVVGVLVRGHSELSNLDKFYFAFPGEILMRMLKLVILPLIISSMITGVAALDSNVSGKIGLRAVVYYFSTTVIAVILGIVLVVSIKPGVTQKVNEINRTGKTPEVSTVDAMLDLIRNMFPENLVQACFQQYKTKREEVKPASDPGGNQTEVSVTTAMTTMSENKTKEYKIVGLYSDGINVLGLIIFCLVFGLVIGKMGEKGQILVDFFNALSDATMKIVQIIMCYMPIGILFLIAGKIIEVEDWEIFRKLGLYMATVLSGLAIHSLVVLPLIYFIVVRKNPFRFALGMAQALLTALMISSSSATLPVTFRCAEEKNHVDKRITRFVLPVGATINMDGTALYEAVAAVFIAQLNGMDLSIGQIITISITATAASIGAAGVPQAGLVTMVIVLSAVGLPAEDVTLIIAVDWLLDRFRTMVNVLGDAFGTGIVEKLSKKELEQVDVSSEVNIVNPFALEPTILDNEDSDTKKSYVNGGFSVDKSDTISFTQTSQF
assay_summary: Inhibitory activity against EAAC1 (EAAT3) in presence of 20 uM L-glutamic acid.
measure_name: Ki (µM)
Value expressed in µM; do not type the unit.

Q) Any idea what Ki was measured for O=C(O)c1nc(-c2ccccc2)oc1C(=O)O ?
A) 530

Values were extracted from ChEMBL document CHEMBL1134543.
